Data origin, for the record: BindingDB's records for doi:10.7270/Q2K935WV

Item-by-item account of pEC50
STUDY SYSTEM: Isoform Bcl-X(L) of Bcl-2-like protein 1 (Bcl-xL) (Homo sapiens, UniProt Q07817)
Sequence (Q07817 whole entry G70A, canonical isoform): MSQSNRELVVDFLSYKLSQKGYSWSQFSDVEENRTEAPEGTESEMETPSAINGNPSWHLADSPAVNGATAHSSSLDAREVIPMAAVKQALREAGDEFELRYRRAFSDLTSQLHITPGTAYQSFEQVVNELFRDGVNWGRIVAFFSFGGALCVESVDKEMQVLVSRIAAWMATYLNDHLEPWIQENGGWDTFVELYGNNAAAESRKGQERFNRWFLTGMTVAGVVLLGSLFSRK
TEST METHOD NOTES: Bcl-XL binding to Bim peptide disruption – biochemical, multiplexed, bead flow cytometry, human Bcl-XL, dose response (AID 1322)
STATED CONDITIONS: inactive by the depositor's call; pH 7.4; 4 °C
pEC50 here is simply -log10 of the concentration when that concentration is written in mol/L.

O=C1c2ccccc2-c2onc3ccc(NCc4ccco4)c1c23 [MLS000080234]: 4.99
O=C1c2ccccc2-c2onc3ccc(N4CCCC4)c1c23 [SMR000279741]: 4.88
O=c1nc2c(O)cccn2c2c1c(O)nc1ccccc12: 4.86
CCOC(=O)c1nc(Nc2ccc(C(=O)OC)cc2)c2ccccc2n1: 4.87

Lookup: GET /values?readout=pEC50&item= `CCN(CC)c1ccc(-c2nn3c(-c4cccnc4)nnc3s2)cc1`
Found: 5.10

---

STUDY SYSTEM: Isoform Bcl-X(L) of Bcl-2-like protein 1 (Bcl-xL) (Homo sapiens, UniProt Q07817)
TEST METHOD NOTES: Bcl-XL binding to Bim peptide disruption – biochemical, multiplexed, bead flow cytometry, human Bcl-XL, dose response (AID 1322)
STATED CONDITIONS: inactive by the depositor's call; pH 7.4; 4 °C
Threshold check on EC50: strictly below 10 µM is TRUE; on or above 10 µM is FALSE.

# count of solved cases: 3
CCOC(=O)c1c2c3c(cccc3[nH]c1=O)C(=O)c1ccccc1-2: TRUE
COc1cc2nc(=S)n(CCCN3CCOCC3)c(N)c2cc1OC: FALSE
c1ccc(Nc2cccc(Nc3ccccc3)n2)cc1 [N,N'-diphenyl-2,6-pyridinediamine]: TRUE

Lookup: Item `Cc1ccc(-c2ccc(/C=C3\SC(N4CCOCC4)=NC3=O)o2)cc1` : EC50 beneath 10 µM, strictly?
Found: FALSE

Lookup: Try this compound next: `Cc1ccnc(Nc2nc(-c3c(C)nc4sccn34)cs2)c1`
Found: FALSE

Lookup: Next: `COc1ccc(-n2c(=O)c3ccccc3c3ccccc3c2=O)c(OC)c1`
Found: FALSE

---

Measured pEC50, listed per entry for reference.
STUDY SYSTEM: Isoform Bcl-X(L) of Bcl-2-like protein 1 (Bcl-xL) (Homo sapiens)
TEST METHOD NOTES: Bcl-XL binding to Bim peptide disruption – biochemical, multiplexed, bead flow cytometry, human Bcl-XL, dose response (AID 1322)
STATED CONDITIONS: inactive by the depositor's call; pH 7.4; 4 °C
API: returns pEC50 as number; meaning -log10 of concentration in mol/L.

Reference set, count: 2
Cc1ccnc(SCc2cc(=O)c(OC(=O)c3ccc(Cl)c([N+](=O)[O-])c3)co2)n1 [MLS000696790]: 4.71
COCCCNc1nc(S)nc2cc(OC)c(OC)cc12 [SMR000026607]: 5.44

Lookup: May I ask what pEC50 has been recorded for `O=C(CSc1ccc2nnc(-c3ccccn3)n2n1)Nc1nccs1` ?
Found: 4.95
